target: iNOS in human cartilage explants (Homo sapiens, UniProt P35228); assay: Human cartilage explant assay (IL-1β-induced nitrite production); conditions: inhibition of nitrite production, IL-1β-stimulated explants; averages across all experiments and all lots
pIC50: −log10 of the molar value. Where a name gives a salt, the structure may show the parent alone.
endpoint: pIC50

[[record]]
molecule = "CC(=N)NCCSCC(C)(N)C(=O)O (centres unmarked) [Example 16]"
recorded_result = 6.15

[[record]]
molecule = "CC(=N)NCCSC[C@](C)(N)C(=O)O [Example 1, dihydrochloride]"
recorded_result = 6.15

